system: A498 renal; test: NCI tumour cell line growth inhibition, 48 h
Recorded measurements of TGI, one per entry

>  <compound>
Cc1ccc(C(=O)Nc2ccc(CP(=O)(O)O)cc2CP(=O)(O)O)cc1NC(=O)Nc1cc(C(=O)Nc2ccc(CP(=O)(O)O)cc2CP(=O)(O)O)ccc1C

>  <TGI>
> 100 µM

$$$$
>  <compound>
Cc1cccc(C)c1NC(=O)C1=NC(=S)NC(c2ccccc2)C1c1nc2ccccc2s1 (centres undefined)

>  <TGI>
> 100 µM

$$$$
>  <compound>
C=C1C(O)C[C@H](OC(C)=O)[C@]2(C)C1C(OC(C)=O)[C@]1(C(C)(C)O)CC(O)C(C)=C1[C@@H](OC(=O)c1ccccc1)C2OC(C)=O (some centres undefined)

>  <TGI>
> 10 µM

$$$$
>  <compound>
Nc1ccc(C(=O)N/C(=C\c2cccc([N+](=O)[O-])c2)c2nc3[nH]c(=S)[nH]c(=O)c3[nH]2)cc1

>  <TGI>
> 100 µM

$$$$
>  <compound>
COc1ccc(N=NC(=O)NC(CC(C)C)C(N)=O)cc1 (centres undefined)

>  <TGI>
> 31.6 µM

$$$$
>  <compound>
CN(C)C(=N/O)/C(=N\O)N(C)C

>  <TGI>
> 100 µM

$$$$
>  <compound>
COC1=CC(=O)CC(C)C12Oc1c(Cl)c(OC)cc(OC)c1C2=O (centres undefined)

>  <TGI>
> 93.8 µM

$$$$
>  <compound>
CCOP(=O)(OCC)C1CCCOC1=O (centres undefined)

>  <TGI>
> 100 µM

$$$$
>  <compound>
C[N+](C)(C)CC(=O)N/N=C(/C(=O)Nc1ccc(Br)cc1)C1C(=O)NC(=O)NC1=O

>  <TGI>
> 100 µM

$$$$

---

system: TK-10 renal; assay: NCI tumour cell line growth inhibition, 48 h

>  <compound>
CCOCCCn1c2c(c3c(O)cccc31)C(=O)c1ccccc1-2

>  <rel>
=

>  <TGI, µM>
76.2

$$$$
>  <compound>
Cc1ccc(-c2nc(N/N=C/c3ccc(O)cc3)c3ccccc3n2)cc1

>  <rel>
=

>  <TGI, µM>
68.5

$$$$
>  <compound>
Clc1cccc(NN=Nc2ccc(-c3nc4ccccc4s3)cc2)c1

>  <rel>
>

>  <TGI, µM>
100

$$$$
>  <compound>
C=CCN(CCNS(=O)(=O)c1ccc(C)cc1)S(=O)(=O)c1ccc(C)cc1

>  <rel>
>

>  <TGI, µM>
100

$$$$
>  <compound>
COc1cccc(CC(C)=C(c2ccc(OCCN3CCCCC3)cc2)c2ccc(OCCN3CCCCC3)cc2)c1

>  <rel>
=

>  <TGI, µM>
4.54

$$$$
>  <compound>
Nc1[nH]nc2nc3ccccc3nc12

>  <rel>
>

>  <TGI, µM>
100

$$$$
>  <compound>
CC(O)(P(=O)(O)O)P(=O)(O)OCC(O)CN1CCOCC1 (stereo not given)

>  <rel>
>

>  <TGI, µM>
100

$$$$
>  <compound>
CN(C)c1ccc(/C=C(\NC(=O)c2ccccc2)C2=NC(CCC(=O)O)C(=O)O2)cc1 (stereo not given)

>  <rel>
>

>  <TGI, µM>
50

$$$$
>  <compound>
O=C(N=c1ccc2nc(=O)[nH]n(O)c-2c1)C(F)(F)F

>  <rel>
>

>  <TGI, µM>
100

$$$$
>  <compound>
CCOC(=O)C(Cc1c[nH]c2cc([N+](=O)[O-])ccc12)NS(=O)(=O)c1ccc2ccccc2c1 (stereo not given)

>  <rel>
=

>  <TGI, µM>
74.3

$$$$

---

Recorded measurements of TGI, one per entry
tested on: COLO 205 colon; experiment: NCI tumour cell line growth inhibition, 48 h
observed.property: TGI

>  <compound>
O=C(O)c1ccc(C2=Cc3cc(Cl)ccc3OC2)cc1

>  <observed.property>
TGI

>  <value.measured>
> 100 µM

$$$$
>  <compound>
CC(=O)Nc1c(Nc2ccccc2)[nH]c(C)nc1=S

>  <observed.property>
TGI

>  <value.measured>
> 100 µM

$$$$
>  <compound>
Nc1[nH]nc2nc3ccccc3nc12

>  <observed.property>
TGI

>  <value.measured>
> 100 µM

$$$$
>  <compound>
CC1(C)CNc2cc(NC(=O)c3cccnc3NCc3ccncc3)ccc21

>  <observed.property>
TGI

>  <value.measured>
> 100 µM

$$$$
>  <compound>
COc1c2c(c3ccccc3c1O)C1C=CC2C1 (stereo not drawn)

>  <observed.property>
TGI

>  <value.measured>
30.1 µM

$$$$
>  <compound>
COC1=CC2(CC(OC)=C1OC)OC21COc2ccccc2C1=O (stereo not drawn)

>  <observed.property>
TGI

>  <value.measured>
> 100 µM

$$$$
>  <compound>
Cc1cccc(N2C(=O)C3c4[nH]c5ccccc5c4C4CCC(C(C)(C)C)CC4C3C2=O)c1 (stereo not drawn)

>  <observed.property>
TGI

>  <value.measured>
24.2 µM

$$$$
>  <compound>
COc1ncc(Nc2ncc([C@@H](C)N3CCN(S(C)(=O)=O)CC3)cc2-c2nc(C)nc(N)n2)cc1F

>  <observed.property>
TGI

>  <value.measured>
15.3 µM

$$$$

---

system: RPMI-8226 leukemia; experiment: NCI tumour cell line growth inhibition, 48 h

>  <compound>
CCOC(=O)Nc1ccc2c(c1)c(CCCCCCc1nc3ccccc3c3ccc(NC(=O)OCC)cc13)nc1ccccc12

>  <TGI>
> 100 µM

$$$$
>  <compound>
C[CH2][Ge]([CH2]C)([CH2]C)[O]C(=O)C(OC(C)=O)c1ccccc1 (stereo not drawn)

>  <TGI>
> 100 µM

$$$$
>  <compound>
NC(CSSCC(N)=NCC12CC3CC(CC(C3)C1)C2)=NCC12CC3CC(CC(C3)C1)C2

>  <TGI>
6.17 µM

$$$$

---

test system: K-562 leukemia; assay: NCI tumour cell line growth inhibition, 48 h
Recorded measurements of TGI, one per entry
observed.property: TGI

>  <given.smiles>
C=C/C=C/[C@@H](O)CC(=C)C[C@H]1OC2[C@H](C)[C@@H](OC(=O)C[C@H]3C[C@H](OC(C)=O)C[C@@]4(C[C@@](C)(O)C[C@H](CC(=C)[C@@H](C)[C@H](OC(C)=O)[C@H](C)C(=O)C[C@@H]5C[C@H](OC)CC6(C[C@@H](O)C[C@H](/C=C\CCC[C@H]7O[C@](O)(C=C[C@H]7C)[C@H]2O)O6)O5)O4)O3)[C@@H]1O

>  <value.measured>
> 25 µM

$$$$
>  <given.smiles>
Clc1ccc(-c2cn3c(nc4ccccc43)c(/C=C/c3ccco3)n2)cc1

>  <value.measured>
> 100 µM

$$$$
>  <given.smiles>
O=C(O)c1cnc(-n2[nH]c3c(c2=O)CCCC3)[nH]c1=O

>  <value.measured>
> 100 µM

$$$$
>  <given.smiles>
NC(=O)c1ccccc1[N+](=O)[O-]

>  <value.measured>
> 100 µM

$$$$

---

Recorded measurements of TGI, one per entry
system: U251 CNS; experiment: NCI tumour cell line growth inhibition, 48 h
observed.property: TGI

>  <compound>
O=C(Nc1cccc([N+](=O)[O-])c1)c1n[nH]n(-c2cccc([N+](=O)[O-])c2)c1=O

>  <value.measured>
> 100 µM

$$$$
>  <compound>
CCOC(=O)NC(OC)(C(F)(F)F)C(F)(F)F

>  <value.measured>
> 100 µM

$$$$
>  <compound>
COc1ncc(Nc2ncc([C@@H](C)N3CCN(S(C)(=O)=O)CC3)cc2-c2nc(C)nc(N)n2)cc1F

>  <value.measured>
> 100 µM

$$$$
>  <compound>
CCCCCCCCCCCC[C@@H](O)[C@H]1CCC([C@H](O)CCCCC(=O)CCCCCCCC2=C[C@H](C)OC2=O)O1 (stereo partly specified)

>  <value.measured>
> 50 µM

$$$$
>  <compound>
CC(=O)Oc1c2c(c3n(c1=O)CCCC3)C(=O)N(c1ccccc1)C2=O

>  <value.measured>
> 100 µM

$$$$
>  <compound>
O=c1[nH]cc(Cl)c(=O)[nH]1

>  <value.measured>
> 100 µM

$$$$

---

system: LXFL 529 NSCLC; assay: NCI tumour cell line growth inhibition, 48 h

>  <molecule>
CC1/C(=N\O)CC(c2ccccc2)N(C)C1c1ccccc1 (stereo unspecified)

>  <TGI>
> 100 µM

$$$$
>  <molecule>
ClC/C=C/COC1CCCCO1 (stereo unspecified)

>  <TGI>
> 100 µM

$$$$
>  <molecule>
CCOC(=O)C(=O)CC1=Nc2ccccc2SC(c2cccc(C)c2)C1 (stereo unspecified)

>  <TGI>
31.9 µM

$$$$
>  <molecule>
COCN1COCN=C1NC#N

>  <TGI>
> 100 µM

$$$$
>  <molecule>
c1ccc2c3c([nH]c2c1)[C@H]1C2CCCCN2CN1CC3 (stereo partly specified)

>  <TGI>
> 100 µM

$$$$
>  <molecule>
C[N+](C)(C)CC(=O)N/N=C(/C(=O)Nc1ccc(Br)cc1)C1C(=O)NC(=O)NC1=O

>  <TGI>
> 100 µM

$$$$
